Data credit: PubChem BioAssay (NCI)

- Tested on: HT29 colon
- assay-name: NCI tumour cell line growth inhibition, 48 h; in the data active = GI50 below about 0.43 µM; inactive = the rest
Parameter call: string, one of active, inactive

Use the examples below as a reference point.
compound	classification
CC(C)=CCc1cc(O)cc2c1OC(C=C(C)C)C1=C2C(=O)C2=C(C1=O)S(=O)(=O)CCN2 (stereo unspecified)	inactive
Oc1ccc(Nc2c3ccccc3nc3occ(Cl)c23)cc1	inactive
COc1cc(C2CC(c3cccc(Nc4ccncc4)c3)=NN2c2ccc(Cl)cc2)cc(OC)c1OC (stereo unspecified)	inactive
CN(C)c1ccc(N=Nc2ccccn2)c(O)c1	active
C#Cc1nc(Nc2cc(C)[nH]n2)c2ccccc2n1	active
COc1ccc(/C(=C\C=C(C#N)C#N)Sc2nc3ccccc3s2)cc1	inactive

Which result was noted for this compound in the test: CCOC(=O)c1c(-c2ccc(OC)cc2)c(C#N)c2c(C#N)c(N)nn2c1N inactive

Could you please tell me the result logged for O=S(=O)(Nc1ccc(Cl)cc1Cl)c1ccc(-c2cnc(C3CC3)o2)cc1 in this assay? active

Each compound tested received a call. Report the one for CC1CCN(C(=O)OCc2nc3nc(Cl)nc(N4CCOCC4)c3[nH]2)CC1 . inactive

Short answer needed: outcome of this test for O=C(NNc1ccccc1)C(=O)NNc1ccccc1 ? inactive

What was the test verdict on COc1cc(/C=C/C(=O)c2cccc(-n3cc(-c4ccc(Cl)cc4)[nH]c3=O)c2)ccc1O ? inactive

====

- Tested on: MCF7 breast
- assay-name: NCI tumour cell line growth inhibition, 48 h
metric: TGI

Previously resolved entries follow.
molecule	metric	experimental-value
CC(=O)OCC1OC(OC2CC3C(C)(C)C(O)CC[C@]3(C)C3CCC45CC4(CCC5[C@@H](C)CC(O)C(O)C(C)(C)O)[C@]23C)C(O)C(O)C1O (stereo not given in full)	TGI	> 10 µM
COC1(OC)CCCc2c1no[n+]2[O-]	TGI	> 100 µM
COc1ccccc1Nc1ncc(-c2ccccc2)o1	TGI	> 25 µM
CN(C)C(=O)/C=C/c1c[nH]c(=O)[nH]c1=O	TGI	> 500 µM
COc1ccc(C2=C(c3ccc(OC)cc3)C(=O)N3CCCC3C2)cc1 (stereo not given)	TGI	> 100 µM

// lookup TGI for O=C1NI(C#Cc2ccccc2)c2ccccc21 94.3 µM

Endpoint output: TGI of CCN(Cc1ccc(F)cc1)c1ccc(CO)c(Br)c1 . Value? 16.1 µM

# get_value(readout='TGI', item= CC(=O)OCC1OC(n2c(C)cc(C)c(C#N)c2=S)C(OC(C)=O)C(OC(C)=O)C1OC(C)=O (stereo not given) ) > 100 µM

Form field: reported TGI of COc1ccc2c(C(=O)c3cn(CCN4CCOCC4)c4ccccc34)cccc2c1 > 80.2 µM

Tell me the measured TGI of C=CCc1ccc(O)c(-c2ccc(O)c(CC=C)c2)c1 , please. 26.2 µM

Using the record for O=C(O)c1ccc(C(=O)O)c2c(C(=O)O)ccc(C(=O)O)c12 , report its TGI. > 100 µM

Sample COc1ccc(C[C@H]2COC(=O)[C@@H]2Cc2cccc(Br)c2)cc1OC — what was its TGI? 63.2 µM

====

- System: UACC-62 melanoma
- assay-name: NCI tumour cell line growth inhibition, 48 h; in the data active = GI50 below about 0.43 µM; inactive = the rest
Where a SMILES comes first, the peptide text is derived from it. The star is where a group is joined. Boc = CC(C)(C)OC(=O)*
Please reply with one of these outcomes: True = active, False = inactive

Please review the entries below; each comes with its answer.
compound	classification
COC(=O)c1ccc2c(c1)/C(=C\c1cc(Br)c(O)c(Br)c1)C(=O)N2	False
Oc1ccc(Nc2c3ccccc3nc3occ(Cl)c23)cc1	False

How did this test come out for O=C1c2cc3c(cc2-c2c1c1cc(Cl)c(Cl)cc1c(=O)n2C[C@H](O)CO)OCO3 ? True

Recorded test outcome, item O=[N+]([O-])c1ccc(CI)cc1 False

So what was the verdict on O=[N+]([O-])c1cccc2ccc(N/N=C/c3ccccc3O)nc12 in this test? False

Short answer needed: outcome of this test for COC(=O)C1=CN(CC2=CC(=O)C(C)=CC2=O)C=C(C(=O)OC)C1c1cccc(OC)c1 ? False

Hey, what did the test say about Nc1c(C(=O)c2ccccc2)cnn1-c1ccc(F)cc1 ? False

For this compound, state the assay outcome: COC(=O)C(C)NC(=O)C(CCSC)NC(=O)C(Cc1ccccc1)NC(=O)OC(C)(C)C (stereo not drawn) (Boc-Phe-Met-Ala-OMe; configuration not given here) False

====

- System: A549 NSCLC
- assay-name: NCI tumour cell line growth inhibition, 48 h
metric: TGI

Record request: TGI value, item COc1ccc(/C=C2\c3cc(OC)c(OC)cc3CCN2C(=O)c2ccccc2)cc1OC > 100 µM

// query TGI value for entry CN(CCN(C)C(=O)CCn1cc(F)c(=O)[nH]c1=O)C(=O)CCn1cc(F)c(=O)[nH]c1=O > 100 µM

Look at this compound and give its reported TGI. CC(=O)OCC1OC(n2c(C)cc(C)c(C#N)c2=S)C(OC(C)=O)C(OC(C)=O)C1OC(C)=O (stereo not drawn) > 100 µM

What does the record list as TGI for C#Cc1nc(Nc2cc(C)[nH]n2)c2ccccc2n1 ? 2.24 µM

What does the record list as TGI for Cc1nc2ccc(F)cc2c2c1CCN2c1ccc(Cl)cc1 ? > 100 µM

Need TGI, item CC(C)=CCc1cc2c(cc1O)OC[C@H]1c3cc4c(cc3O[C@@H]21)OCO4 > 100 µM

State the recorded TGI for this entry: CN(C)c1ncnc2c1ncn2CCn1cnc2c(N(C)C)ncnc21 > 100 µM

Field request: TGI | item: CCN(CC)CCSc1c2ccccc2nc2c(OC)ccc(OC)c12 50.1 µM

// lookup TGI for COc1ccc(N=NC(=O)NC(CC(C)C)C(=O)NC(C)C(=O)O)cc1 (stereo not drawn) > 51.2 µM

Looking for the measured TGI of N=C1C(=N)c2ccccc2-c2ccccc21.N=C1C(=N)c2ccccc2-c2ccccc21.N=C1C(=N)c2ccccc2-c2ccccc21.[Cl-].[Ru+2] , can you help? > 27.9 µM

Which measured TGI value corresponds to COC(=O)c1nsc(OC)c1Cl ? > 100 µM

Please report the recorded TGI for Cn1cc(-c2csc(-c3c[nH]c4ccc(Br)cc34)n2)c2cnccc21 . 11.5 µM

Could you share which TGI value was measured for Cn1c2ccccc2c2ncc3[nH]c4ccccc4c3c21 ? 49.6 µM

====

Property: TGI; scope: individual molecules
- Tested on: DMS 114 small cell lung
- assay-name: NCI tumour cell line growth inhibition, 48 h

Sample answers from the record:
molecule	TGI
CC(C)(C)[Si](C)(C)OC1C(=O)C[C@H]2CCCC[C@@H]12 (stereo not given in full)	> 100 µM
CN(C)C(=O)/C=C/c1c[nH]c(=O)[nH]c1=O	> 500 µM
O=S(=O)(c1ccccc1)N1N=C2c3ccccc3CCC[C@H]2C1c1ccccc1 (stereo not given in full)	> 100 µM
CCN(CC)CCSc1c2ccccc2nc2c(OC)ccc(OC)c12	3.24 µM

We now examine a further molecule.
Find the measured TGI: item COc1ccc2c(c1)CCCN2CCCCCCCCCCN(CCC(C)C)CCC(C)C , target or system DMS 114 small cell lung. 19.5 µM

====

This listing pairs compounds with measured TGI.
- Test system: SR leukemia
- assay-name: NCI tumour cell line growth inhibition, 48 h

Guide cases for TGI, answers given:
compound	metric	experimental-value
Cc1cc(/N=C/c2ccc(F)cc2)n(-c2ccccc2)n1	TGI	> 100 µM
[N-]=[N+]=CC(=O)OC1Cc2ccccc2C1	TGI	> 100 µM
COC(=O)C(C(=O)Cc1ccccc1[N+](=O)[O-])C(=O)OC	TGI	> 100 µM

Param readout= TGI; system= SR leukemia; entry= Cn1c(=O)c(Oc2ccc(F)cc2)cc2cnc(NC3CCOCC3)nc21 ; returns value. > 25 µM

Please provide the recorded TGI for CCCC(=O)N1CCN(c2ccc3c(c2)OC(C)O3)CC1 (stereo not given) , tested on SR leukemia. > 100 µM

Tell me reported TGI for CN(C)C(=S)Sc1ccc([N+](=O)[O-])cc1[N+](=O)[O-] , tested with SR leukemia. 16.8 µM

====

- Tested on: MALME-3M melanoma
- assay-name: NCI tumour cell line growth inhibition, 48 h
metric: TGI

molecule	tested-on	TGI
COc1ccc(C(C#N)NNC(=O)Cc2ccccc2)cc1OC (stereo not drawn)	MALME-3M melanoma	> 100 µM

Item O=[N+]([O-])c1cccc2ccc(N/N=C/c3ccccc3O)nc12 has what recorded TGI? > 100 µM

What does the data say about its TGI? Entry: COc1cc(/C=C\c2cc(OC)c(OC)c(OC)c2)cc(N/C=C\C(=O)c2cc(OC)c(OC)c(OC)c2)c1OC > 100 µM

====

- System: T-47D breast
- assay-name: NCI tumour cell line growth inhibition, 48 h
Below is a list of entries, each paired with its recorded TGI value.

compound	TGI
COc1ccc(C[C@H]2COC(=O)[C@@H]2Cc2cccc(Br)c2)cc1OC	> 100 µM
COc1cc(/C=C/C(=O)c2cccc(-n3cc(-c4ccc(Cl)cc4)[nH]c3=O)c2)ccc1O	17.8 µM
O=C1NI(C#Cc2ccccc2)c2ccccc21	> 100 µM
CC(=O)OCC1OC(OC2CC3C(C)(C)C(O)CC[C@]3(C)C3CCC45CC4(CCC5[C@@H](C)CC(O)C(O)C(C)(C)O)[C@]23C)C(O)C(O)C1O (stereo partly specified)	> 10 µM
COC(=O)c1ccc(-c2c(C#N)[n+](=O)c3cc(Cl)c(Cl)cc3n2[O-])cc1	6.08 µM

Recall the recorded TGI for CCc1ccc(/C=C/c2ccc(O)c3ncccc23)[n+](C)c1 with T-47D breast and state it. > 100 µM

Enter reported TGI observed with T-47D breast for O=C(N(O)c1ccccc1Cl)C(O)(c1ccccc1)c1ccccc1 > 100 µM

# query: TGI | item Cc1ccc(Nc2oc(-c3ccccc3)nc2[P+](c2ccccc2)(c2ccccc2)c2ccccc2)cc1 | system: T-47D breast 2.33 µM

Lookup: TGI / T-47D breast / Cn1c(Nc2ccc(C(F)(F)F)cc2)nc2cc(Oc3ccnc(-c4ncc(C(F)(F)F)[nH]4)c3)ccc21 17.4 µM

Write down the reported TGI of COc1ccc(N=NC(=O)NC(CC(C)C)C(=O)NC(C)C(=O)O)cc1 (stereo unspecified) , test system: T-47D breast. > 45.3 µM

# returns recorded TGI (system: T-47D breast) for COC(=O)C1=C(O)c2ccc(Cl)cc2S(=O)(=O)N1C > 100 µM
